src = PubChem BioAssay AID1159580

Property: normalized growth; scope: individual compounds
# measurement-description: chemical genetic growth profiling, strain panel (AID 1159580);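 also: tested at 20 µM; growth read once vehicle control cultures reached saturation at 30 °C; 1 = growth at the plate median or of vehicle wells; lower values mean less growth of the strain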
# experimental-conditions: S. cerevisiae deletion strains, growth OD, locus YBR136W, strain MEC1, hits give low values
Among all 5,500 compounds or so, about 2,000 (36%) were called active. Another 18% or so got no clear call; they are omitted. This is one part of the list.
quantity-measured: normalized growth

1) S=C(Nc1ccc(Cl)cc1)Nc1ccc(Cl)cc1; 0.928
2) C/C(=N/NC(=O)c1ccc(C(C)(C)C)cc1)c1ccccc1O; 0.979
3) OC(CSc1ccccc1)CN1CCN(c2nc(-c3ccccc3)ns2)CC1 (stereo not drawn); 0.977
4) N#C/C(=N/Nc1cccc(C(F)(F)F)c1)C(=O)c1csc(-c2cccnc2)n1; 0.962
5) CC(C)(C)C(=O)c1sc2sc(C(=O)C(C)(C)C)c(N)c2c1N; 0.984
6) CN1c2ccccc2C(C)(C)C12C=Cc1cc(O)ccc1O2 (stereo not drawn); 0.981
7) CS/C(Nc1cccc(C(F)(F)F)c1)=C(/C#N)S(=O)(=O)c1ccc(Cl)cc1; 0.941
8) S=C(N/N=C\c1cccs1)NC1CC2CCC1C2 (stereo not drawn); 0.95
9) FC(F)(F)c1cc(-c2ccc(Cl)cc2)n[nH]1; 0.918
10) Cc1ccc2nc(-c3ccc([N+](=O)[O-])o3)oc(=O)c2c1; 0.181
11) COc1ccc(C2CC(c3ccc(C)cc3C)=NN2C(C)=O)cc1 (stereo not drawn); 0.981
12) Clc1ccc(N/N=C\c2sccc2Oc2ccccc2)cc1; 0.963
13) Cn1nc(-c2ccccc2)c(O)c(N=Nc2ccccc2)c1=O; 0.96

###

In this section we review reported normalized growth values for a set of compounds.
# measurement-description: chemical genetic growth profiling, strain panel (AID 1159580);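 also: tested at 20 µM; growth read once vehicle control cultures reached saturation at 30 °C; 1 = growth at the plate median or of vehicle wells; lower values mean less growth of the strain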
# experimental-conditions: S. cerevisiae deletion strains, growth OD, locus YLR058C, strain SHM2, hits give low values
Hit rate of the full screen: of about 5,500 compounds, about 2,000 (36%) were called active. Another 18% or so got no clear call; they are omitted. The list shows a part of the results.
quantity-measured: normalized growth

1. CC(=O)Oc1cccc(C(=O)O)c1OC(C)=O; 1.01
2. CC(=O)OCC(=O)[C@@]1(O)CCC2C3CCC4=CC(=O)CC[C@]4(C)C3[C@@H](O)C[C@@]21C (stereo partly specified); 0.996
3. C#C[C@]1(O)CCC2C3CCC4=Cc5oncc5C[C@]4(C)C3CC[C@@]21C (stereo partly specified); 0.898
4. NC(=O)NO; 1.01
5. c1ccc([C@H]2CN3CCSC3=N2)cc1; 1.01
6. CC1(C)C=Cc2cc3ccc(=O)oc3cc2O1; 0.965
7. Cc1onc(-c2ccccc2)c1C(=O)NC1C(=O)N2[C@@H]1SC(C)(C)[C@@H]2C(=O)O (stereo partly specified); 1.01
8. CC(=O)NO; 0.988
9. CO[C@@]1(NC(=O)Cc2cccs2)C(=O)N2C(C(=O)O)=C(COC(N)=O)CS[C@@H]21; 1.01
10. COc1cc2c(cc1OC)[C@@]13CCN4CC5=CCOC6CC(=O)N2C1[C@H]6[C@H]5C[C@H]43 (stereo partly specified); 1.02
11. COc1cnc(NS(=O)(=O)c2ccc(N)cc2)nc1; 0.976
